Biological target: T1, human gastric inhibitory peptide receptor (GIPR) (human, UniProt P48546 22-466)
T1 sequence (looked up): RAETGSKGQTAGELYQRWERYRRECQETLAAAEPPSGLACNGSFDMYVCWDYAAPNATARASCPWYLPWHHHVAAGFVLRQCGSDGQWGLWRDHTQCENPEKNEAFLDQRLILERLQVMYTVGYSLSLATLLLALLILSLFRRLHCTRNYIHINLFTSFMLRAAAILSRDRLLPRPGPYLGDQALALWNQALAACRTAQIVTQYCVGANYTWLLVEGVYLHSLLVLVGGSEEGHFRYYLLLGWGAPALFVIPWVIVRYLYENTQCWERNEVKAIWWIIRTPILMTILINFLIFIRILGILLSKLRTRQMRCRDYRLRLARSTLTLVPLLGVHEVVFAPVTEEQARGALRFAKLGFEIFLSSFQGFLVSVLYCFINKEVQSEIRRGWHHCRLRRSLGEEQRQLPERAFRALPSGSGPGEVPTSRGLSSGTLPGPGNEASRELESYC
Experiment: cell-based or functional assay
Numbered stars: 1 amine (or outer) side, 2 acyl side, 3 side chain; on linkers, the order of the positions; unused ones are H or OH. Square brackets hold non-standard residues; d marks the D form. Side chains are listed from the residue outwards. Ends that are not written are not given here. * marks the point of attachment. C20 diacid = O=C(O)CCCCCCCCCCCCCCCCCCC(=O)*; αMePhe(2-F) = C[C@](N)(Cc1ccccc1F)C(=O)O; γGlu = O=C(O)[C@H](CCC(=O)[*:2])N[*:1]; Desaminotyrosyl = O=C(CCc1ccc(O)cc1)*; αMeF = C[C@](N)(Cc1ccccc1)C(=O)O; AEEA = NCCOCCOCC(=O)O; Aib = CC(C)(N)C(=O)O
Categories are defined by ranges of hGIPR cAMP EC50 ratio, namely low range = under 0.5, mid range = from 0.5 up to 3, high range = 3 and over

Binder	Qualitative label
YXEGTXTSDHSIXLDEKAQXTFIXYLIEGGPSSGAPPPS (Y-Aib-EGT-αMeF(2F)-TSDHSI-αMeF-LDEK((2-[2-(2-Amino-ethoxy)-ethoxy]-acetyl)2-(γ-Glu)-CO-(CH2)14-CO2H)AQ-Aib-TFI-(D-Glu)-YLIEGGPSSGAPPPS-NH2) [Example 170]	low range
Y[Aib]EGT[αMeF]TSDYSIXLDEK([AEEA-AEEA-γGlu-C20 diacid])AQ[Aib]EFIEYLIEGGPSSG-NH2 (not fully specified (residue 13); printed as Y-Aib-EGT-αMeF-TSDYSI-αMeF-LDEK((2-[2-(2-Amino-ethoxy)-ethoxy]-acetyl)2-(γ-Glu)-CO-(CH2)18-CO2H)AQ-Aib-EFIEYLIEGGPSSG-NH2) [Example 124]	mid range
YXEGTXTSDXSILLDKKAQXAFIEYLIEGGPSSGAPPPS (Y-Aib-EGT-αMeF-TSD-3Pal-SILLDKK((2-[2-(2-Amino-ethoxy)-ethoxy]-acetyl)2-(γ-Glu)-CO-(CH2)18-CO2H)AQ-Aib-AFIEYLIEGGPSSGAPPPS-NH2) [Example 132]	mid range
[Desaminotyrosyl]AEGTFTSDYSILLDEK([AEEA-AEEA-γGlu-C20 diacid])AQQAFIEYLIEGGPSSGAPPPS-NH2 [Example 200]	low range
Y[Aib]EGT[αMePhe(2-F)]TSD[αMeF]SIXLDEKAQ[Aib]EFIEYLIEGGPSSGAPPPS-NH2 (not fully specified (residues 13, 17); printed as Y-Aib-EGT-αMeF(2F)-TSD-αMeF-SI-αMeF-LDEK((2-[2-(2-Amino-ethoxy)-ethoxy]-acetyl)2-(γ-Glu)-CO-(CH2)18-CO2H)AQ-Aib-EFIEYLIEGGPSSGAPPPS-NH2) [Example 159]	low range
YXEGTXTSDASIXLDEKAQXEFIXYLIEGGPSSGAPPPS (Y-Aib-EGT-αMeF(2F)-TSDASI-αMeF-LDEK((2-[2-(2-Amino-ethoxy)-ethoxy]-acetyl)2-(γ-Glu)-CO-(CH2)18-CO2H)AQ-Aib-EFI-(D-Glu)-YLIEGGPSSGAPPPS-NH2) [Example 192]	mid range
YXEGTXTSDLSIXLDEKAQXEFIXYLIEGGPSSGAPPPS (Y-Aib-EGT-αMeF(2F)-TSDLSI-αMeF-LDEK((2-[2-(2-Amino-ethoxy)-ethoxy]-acetyl)2-(γ-Glu)-CO-(CH2)18-CO2H)AQ-Aib-EFI-(D-Glu)-YLIEGGPSSGAPPPS-NH2) [Example 183]	high range
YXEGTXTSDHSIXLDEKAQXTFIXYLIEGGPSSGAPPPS (Y-Aib-EGT-αMeF(2F)-TSDHSI-αMeF-LDEK((2-[2-(2-Amino-ethoxy)-ethoxy]-acetyl)2-CO-(CH2)18-CO2H)AQ-Aib-TFI-(D-Glu)-YLIEGGPSSGAPPPS-NH2) [Example 174]	low range
Y[Aib]EGT[αMePhe(2-F)]TSDYSIXLDEKAQ[Aib]EFIAYLIEGGPSSGAPPPS-NH2 (not fully specified (residues 13, 17); printed as Y-Aib-EGT-αMeF(2F)-TSDYSI-αMeF-LDEK((2-[2-(2-Amino-ethoxy)-ethoxy]-acetyl)2-(γ-Glu)-CO-(CH2)18-CO2H)AQ-Aib-EFIAYLIEGGPSSGAPPPS-NH2) [Example 148]	mid range
Y[Aib]EGT[αMeF]TSDYSIXLDKKAQH[Aib]FIEYLIEGGPSSGAPPPS-NH2 (not fully specified (residues 13, 17); printed as Y-Aib-EGT-αMeF-TSDYSI-αMeF-LDKK((2-[2-(2-Amino-ethoxy)-ethoxy]-acetyl)2-(γ-Glu)-CO-(CH2)18-CO2H)AQH-Aib-FIEYLIEGGPSSGAPPPS-NH2) [Example 144]	high range
Y[Aib]EGT[αMeF]TSDYSIXLDKKAQ[Aib]IFIEYLIEGGPSSGAPPPS-NH2 (not fully specified (residues 13, 17); printed as Y-Aib-EGT-αMeF-TSDYSI-αMeF-LDKK((2-[2-(2-Amino-ethoxy)-ethoxy]-acetyl)2-(γ-Glu)-CO-(CH2)18-CO2H)AQ-Aib-IFIEYLIEGGPSSGAPPPS-NH2) [Example 141]	mid range
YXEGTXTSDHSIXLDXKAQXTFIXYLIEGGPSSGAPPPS (Y-Aib-EGT-αMeF(2F)-TSDHSI-αMeF-LD-Dab-K((2-[2-(2-Amino-ethoxy)-ethoxy]-acetyl)2-(γ-Glu)-CO-(CH2)18-CO2H)AQ-Aib-TFI-(D-Glu)-YLIEGGPSSGAPPPS-NH2) [Example 172]	low range
HXEGTXTSDXSIXLDEKAQXEFIXYLIEGGPSSGAPPPS (H-Aib-EGT-αMeF(2F)-TSD-3Pal-SI-αMeF-LDEK((2-[2-(2-Amino-ethoxy)-ethoxy]-acetyl)2-(γ-Glu)-CO-(CH2)18-CO2H)AQ-Aib-EFI-(D-Glu)-YLIEGGPSSGAPPPS-NH2) [Example 190]	low range
YXEGTXTSDQSIXLDEKAQXEFIXYLIEGGPSSGAPPPS (Y-Aib-EGT-αMeF(2F)-TSDQSI-αMeF-LDEK((2-[2-(2-Amino-ethoxy)-ethoxy]-acetyl)2-(γ-Glu)-CO-(CH2)18-CO2H)AQ-Aib-EFI-(D-Glu)-YLIEGGPSSGAPPPS-NH2) [Example 187]	high range
YXEGTXTSDXSILLDXKAQXEFIXYLIEGGPSSGAPPPS (Y-Aib-EGT-αMeF(2F)-TSD-4Pal-SILLD-Dab-K((2-[2-(2-Amino-ethoxy)-ethoxy]-acetyl)2-(γ-Glu)-CO-(CH2)16-CO2H)AQ-Aib-EFI-(D-Glu)-YLIEGGPSSGAPPPS-NH2) [Example 234]	high range
Y[Aib]EGT[αMeF]TSDYSIXLDKK([AEEA-AEEA-γGlu-C20 diacid])AQ[Aib]EFI[dE]YLIEGGPSSG-NH2 (not fully specified (residue 13); printed as Y-Aib-EGT-αMeF-TSDYSI-αMeF-LDKK((2-[2-(2-Amino-ethoxy)-ethoxy]-acetyl)2-(γ-Glu)-CO-(CH2)18-CO2H)AQ-Aib-EFI-(D-Glu)-YLIEGGPSSG-NH2) [Example 228]	high range

The origin of these recorded values is patent US20220048967A1.
